Each entry below lists one item and its recorded Inh. (%) (Inhibition) value.
- TARGET OF ASSAY: HCV NS3 helicase NS3h_1b(con1) (Hepatitis C virus genotype 1b, UniProt Q9WMX2)
- Construct: truncated C-terminally His-tagged NS3 proteins lacking the N-terminal protease, called NS3h; His-tag (C); made in house
- Sequence (Q9WMX2 1192-1657): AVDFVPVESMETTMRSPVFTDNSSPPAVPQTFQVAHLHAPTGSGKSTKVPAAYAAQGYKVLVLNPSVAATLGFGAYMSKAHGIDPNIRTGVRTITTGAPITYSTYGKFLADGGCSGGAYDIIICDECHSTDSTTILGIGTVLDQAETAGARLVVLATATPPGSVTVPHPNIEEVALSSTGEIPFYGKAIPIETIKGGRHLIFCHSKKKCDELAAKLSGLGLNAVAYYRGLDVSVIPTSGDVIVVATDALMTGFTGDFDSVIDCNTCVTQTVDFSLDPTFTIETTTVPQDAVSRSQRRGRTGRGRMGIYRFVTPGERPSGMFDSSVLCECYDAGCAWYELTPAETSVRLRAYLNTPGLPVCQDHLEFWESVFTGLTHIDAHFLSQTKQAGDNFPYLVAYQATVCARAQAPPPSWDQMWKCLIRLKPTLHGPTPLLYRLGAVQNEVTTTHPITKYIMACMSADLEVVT
- PROTOCOL DETAILS: MBHA screen of NCI mechanistic set library at 20 μM (percent inhibition, compound interference)
- Type: biochemical
- STUDY CONDITIONS: compounds at 20 μM, MBHA with DNA substrate; calculated from Equation 1
# value in %; strip the unit string

# count of solved cases: 3
CCN(CC)CCOC(=O)Cc1cccc2c(=O)cc(-c3ccccc3)oc12 : 6.7
O=C(CCCN1CCC(C(O)c2ccc(F)cc2)CC1)c1ccc(F)cc1 (stereo not shown) : −8.7
COC(=O)C1C(O)C(C)C(O)C(C)/C=C\C=C(C)C(=O)Nc2c(C)c(OC(C)=O)c3c(c2O)C(=O)C(C)=C2OCOC(=C23)C(C)=CC(C)(O)C(O)C(C)C1O (stereo not shown) : 25.1

# query: Inh. (%) (Inhibition) of entry CCC(C#N)(c1ccccc1)N(CCc1ccccc1)C(=O)c1ccccc1 (stereo not shown) −16.2

====

- TARGET OF ASSAY: HCV NS3 helicase NS3h_1b(con1) (Hepatitis C virus genotype 1b)
- Construct: truncated C-terminally His-tagged NS3 proteins lacking the N-terminal protease, called NS3h; His-tag (C); made in house
- PROTOCOL DETAILS: MBHA screen of NCI mechanistic set library at 20 μM (percent inhibition, compound interference)
- Assay type: biochemical
- STUDY CONDITIONS: compounds at 20 μM, MBHA with DNA substrate; assay interference calculated with Equation 2
QUANTITY KIND: Int.* (Ratio) (Interference)
# value in Ratio; strip the unit string

CCN1C=C/C(=C\C=C\c2cc[n+](CC)c3ccccc23)c2ccccc21.[I-] [Compound 34391] : 0.24
CC[C@@]1(O)C[C@H](O[C@H]2C[C@H](N(C)C)[C@H](O[C@H]3C[C@@H]4O[C@H]5CC(=O)[C@H](C)O[C@H]5O[C@@H]4[C@H](C)O3)[C@H](C)O2)c2c(cc3c(c2O)C(=O)c2c(O)ccc(O)c2C3=O)[C@H]1C(=O)OC [Compound 243023] : 0.46
CCCCCCCCCc1c(Cl)nc(Cl)nc1Cl [Compound 92510] : 1.00
COc1cc(NS(C)(=O)=O)ccc1Nc1c2ccccc2nc2ccccc12 [Compound 249992] : 1.08
COc1cc([C@@H]2c3cc4c(c(O)c3C[C@H]3COC(=O)[C@@H]32)OCO4)cc(OC)c1O [Compound 24817] : 0.99

Please state recorded Int.* (Ratio) (Interference) (tested on HCV NS3 helicase NS3h_1b(con1) (Hepatitis C virus genotype 1b)) of CN1C(Cl)=NS(=O)(=O)c2ccccc21 [Compound 373853] 0.92

Please state recorded Int.* (Ratio) (Interference) (tested on HCV NS3 helicase NS3h_1b(con1) (Hepatitis C virus genotype 1b)) of CC1(C)CC2=NO[Se]3=C2C(=NO3)C1 [Compound 328587] 0.95

====

- TARGET OF ASSAY: HCV NS3 helicase NS3h_1b(con1) (Hepatitis C virus genotype 1b)
- Construct: truncated C-terminally His-tagged NS3 proteins lacking the N-terminal protease, called NS3h; His-tag (C); made in house
- PROTOCOL DETAILS: MBHA screen of NCI mechanistic set library at 20 μM (percent inhibition, compound interference)
- Assay type: biochemical
- STUDY CONDITIONS: compounds at 20 μM, MBHA with a DNA substrate; calculated from Equation 1
QUANTITY KIND: Inh. (%) (Inhibition)
# value in %; strip the unit string

# count of solved cases: 3
COc1ccc(-c2cc(=O)c3c(O)cc(O)cc3o2)cc1OC : −4.3
COc1ccc(O)cc1 : −4.5
CC1(O)C=CC(=O)C=C1 : 9.0

# query: Inh. (%) (Inhibition) of entry O=C1Cc2c(-c3ccccc3)cc(-c3cccc(Cl)c3)nc2-c2ccccc2N1 −35.3

# query: Inh. (%) (Inhibition) of entry CC(C)=CCC(OC(=O)C=C(C)C)C1=CC(=O)c2c(O)ccc(O)c2C1=O (centres unmarked) 9.4

# query: Inh. (%) (Inhibition) of entry COc1cc2oc3cc(=O)cc4oc(-c5ccccc5)cc(c2c2c1CCC(c1ccccc1)O2)c43 (centres unmarked) 11.4

# query: Inh. (%) (Inhibition) of entry N=C1C=C(N)C(=O)c2[nH]c(=O)ccc21 −26.9

====

- TARGET OF ASSAY: HCV NS3 helicase NS3h_1b(con1) (Hepatitis C virus genotype 1b)
- Construct: truncated C-terminally His-tagged NS3 proteins lacking the N-terminal protease, called NS3h; His-tag (C); made in house
- PROTOCOL DETAILS: MBHA screen of NCI mechanistic set library at 20 μM (percent inhibition, compound interference)
- Type: biochemical
- STUDY CONDITIONS: compounds at 20 μM; assay interference calculated with Equation 2 (fluorescence vs DMSO-only controls before ATP)
QUANTITY KIND: Int.* (Ratio) (Interference)
# value in Ratio; strip the unit string

Cc1cc(O)c(C(C)C)cc1C1(c2cc(C(C)C)c(O)cc2C)OC(=O)c2ccccc21 : 1.01
CC(C)(Br)C(=O)C(Br)Br : 0.91
CCOC(OCC)C(CC)[Se]c1ccccc1[N+](=O)[O-] (centres unmarked) : 1.14

# query: Int.* (Ratio) (Interference) of entry Cl.NC(=O)c1cn(C2OC(CO)C(O)C2O)c2ncnc(N)c12 (centres unmarked) 0.99

# query: Int.* (Ratio) (Interference) of entry CN1CCCC2C(c3ccccc3)C(C3=NCCCC3)C(c3ccccc3)CC21.Cl (centres unmarked) 1.01

====

- TARGET OF ASSAY: HCV NS3 helicase NS3h_1b(con1) (Hepatitis C virus genotype 1b)
- Construct: truncated C-terminally His-tagged NS3 proteins lacking the N-terminal protease, called NS3h; His-tag (C); made in house
- PROTOCOL DETAILS: biochemical
- Format: biochemical, hepatitis C virus genotype 1b(con1)
- STUDY CONDITIONS: standard HCV helicase MBHA (Table 9); read-out: DNA Unwinding IC50
- Procedure: All oligonucleotides were purchased from Integrated DNA Technologies (IDT, Coralville, Iowa). […] All molecular beacon-based helicase assays (MBHAs) were performed according to known methods (Belon & Frick (2008) supra; Belon & Frick (2009) supra). […] Fluorescence was read before ATP (F0) addition and 30 minutes after ATP was added to 1 mM (F30) using a Tecan Infinite M200 fluorescence microplate reader with excitation and emission wavelengths set to 643 and 670 nm, respectively. […]
Note to self: use Criterion met only for IC50 readings below 8 µM; a reading exactly at 8 µM still gets Criterion not met.

Consider the worked cases shown below.
Cc1ccc2nc(-c3ccc4nc(-c5ccc(NC(=O)c6ccc(N)cc6)cc5)sc4c3)sc2c1S(=O)(=O)O : Criterion not met
Cc1ccc2nc(-c3ccc(NC(=O)c4ccc(NC(=O)Nc5ccccc5)cc4)cc3)sc2c1S(=O)(=O)O.N : Criterion not met
Cc1ccc2nc(-c3ccc4nc(-c5ccc(NC(=O)Nc6ccc(Cl)cc6)cc5)sc4c3)sc2c1S(=O)(=O)O : Criterion met
CCN(CC)c1ccc(-c2nc3ccc(C)c(S(=O)(=O)O)c3s2)cc1 : Criterion not met
Cc1ccc2nc(-c3ccc4nc(-c5ccc(NCc6ccccc6)cc5)sc4c3)sc2c1S(=O)(=O)O : Criterion not met

Please check: IC50 for Cc1ccc2nc(-c3ccc4nc(-c5ccc(NC(=O)c6cccc7ccccc67)cc5)sc4c3)sc2c1S(=O)(=O)O.N , strictly under 8 µM or not? Criterion met

Please check: IC50 for COc1ccc(NC(=O)Nc2ccc(-c3nc4ccc(-c5nc6ccc(C)c(S(=O)(=O)O)c6s5)cc4s3)cc2)cc1 , strictly under 8 µM or not? Criterion met

Please check: IC50 for Cc1ccc2nc(-c3ccc(N)cc3)sc2c1S(=O)(=O)O , strictly under 8 µM or not? Criterion not met

Please check: IC50 for Cc1ccc2nc(-c3ccc4nc(-c5ccc(NC(=O)c6ccc7ccccc7c6)cc5)sc4c3)sc2c1S(=O)(=O)O , strictly under 8 µM or not? Criterion met

Please check: IC50 for Cc1ccc2nc(-c3ccc4nc(-c5ccc(NC(=O)c6ccc(Cl)c(Cl)c6)cc5)sc4c3)sc2c1S(=O)(=O)O , strictly under 8 µM or not? Criterion met

====

- TARGET OF ASSAY: HCV NS3 helicase NS3h_1b(con1) (Hepatitis C virus genotype 1b, UniProt Q9WMX2)
- Construct: truncated C-terminally His-tagged NS3 proteins lacking the N-terminal protease, called NS3h; His-tag (C); made in house
- PROTOCOL DETAILS: MBHA screen of NCI mechanistic set library at 20 μM (percent inhibition, compound interference)
- Type: biochemical
- STUDY CONDITIONS: compounds at 20 μM, MBHA with DNA substrate; calculated from Equation 1
Each entry below lists one item and its recorded Inh. (%) (Inhibition) value.
Respond with the figure and its unit, in that order.

# count of solved cases: 3
CN(C)c1ccc2c(SCC(=O)OCC(=O)[C@@]3(O)CC[C@H]4[C@@H]5CCC6=CC(=O)C=C[C@]6(C)[C@H]5C(=O)C[C@@]43C)c3ccc(N(C)C)cc3nc2c1 : 2.3%
COC1=CC(=O)c2c(ccc3ncnc(N)c23)C1=O : 4.9%
CCOc1ccc(C(C)c2cc3c(cc2OC)OCO3)cc1 (stereo not shown) : 1.7%

# query: Inh. (%) (Inhibition) of entry CCOC(=O)Cc1c(C)c2cc(C(=O)c3ccccc3)c(O)cc2oc1=O −12.6%
